# TARGET SYSTEM: T1, cynomolgus PVRIG on cells (cynomolgus, UniProt A0A2K5WVV8 41-322)
# T1 construct: whole, on cells; also called cPVRIG; expi cPVRIG cells
# T1 sequence: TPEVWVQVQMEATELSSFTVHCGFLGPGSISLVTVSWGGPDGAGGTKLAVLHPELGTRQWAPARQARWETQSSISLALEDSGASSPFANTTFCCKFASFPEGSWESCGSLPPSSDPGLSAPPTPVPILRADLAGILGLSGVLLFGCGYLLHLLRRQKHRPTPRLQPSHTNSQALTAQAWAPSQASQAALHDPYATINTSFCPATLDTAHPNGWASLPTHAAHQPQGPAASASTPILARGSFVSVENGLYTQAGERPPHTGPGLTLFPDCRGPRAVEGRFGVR
# ASSAY NAME: FACS, cyno PBMC, CD8+ T cells, 10ug/ml
ASSAY ENDPOINT: gMFIr Cyno CD8+ T cells
// keep it numeric: no unit symbol after the value

Task item: # gMFIr Cyno CD8+ T cells lookup, item CHA.7.528 (antibody, V domains shown) VH: EVQVQQSGPELVKPGASVKISCKASGYTFTKSNMHWVKQSHGKSLEWIGYIYPYNGGTGYNQNFKSKATLTVDISSSTAYMELRSLTLEDSAVYLCAREADYYGNRGQFDYWGQGTLVTVSA VL: DIQMTQSPASLSVSVGETVTITCRASDNIFSNLAWYHQKQGKSPHLLVYGATNLADGVPSRFSGSGSGTQYSLKINSLQSEDFGDYYCQHFWGTPYTFGGGTKLEIK
Reply: 1.18

Task item: Same thing, different binder: CHA.7.524 (antibody, V domains shown) VH: QVQLQQSGPEVVRPGVSVKISCKGSGYKFPDYVMHWVKQSHAKSLEWIGIISIYSGNTNYNQKFKGKATMTVDKSSSTAYMELARLTSEDSAIYYCAREGDLPMFAYWGQGTLVTVSA VL: QIVLTQSPAIMSASPGEKVTMTCNASSSVSYMYWYQQKPISSPRLLIYDTSNLASGVPVRFSGSGSGTSYSLTIGRMEAEDAATYYCQQWSSYPLTFGAGTKVEVK
Reply: 2.02

Task item: Same thing, different binder: CHA.7.543 (antibody, V domains shown) VH: QVQLKESGPGLVAPSQSLSITCTVSGFSLSGYGIKWVRQPPGKGLEWLGTIWGDGSTDYNSALKSRLSISKDNSKSQVFLKMTSLQTDDTARYYCASDSLGITFGYWGQGTLVTVSA VL: DIQMTQTTSSLSASLGDRVTISCRASQDISNYLNWYQQKPDGTVKLLIYYTSRLHSGVPSRFSGSGSGTDYSLTISNLEQEDIATYFCQQGNTLPLTFGAGTKLELK
Reply: 1.39

Task item: Same thing, different binder: CHA.7.548 (antibody, V domains shown) VH: EVQLQQSGPELVKPGASVKISCKASGYTFTDYSMNWVKQSHGKSLEWIGDITPNNGSPNYNQKFKDKATLTVDKSSSTVYMELRSLTSEDSAVYYCASLFFDYWGHGTTLTVSS VL: DIVMTQSPSSLSVSAGEKVTMSCKSSQSLLNSGNQKNYLAWYQQKPGQPPKLLIYGASTRDSGVPDRFTGSGSGTDFTLTITSVQAEDLAVYYCQNDHTYPYTFGGGTKLEIK
Reply: 1.09

Task item: Same thing, different binder: CHA.7.516 (antibody, V domains shown) VH: QVQLQQSGPELVRPGVSVKISCKVSGYTFTDYVMHWVKQSHAKSLEWIGIISPYSGNTNYNQNFKGKATMTVDKSSSTAYMALARLTSEDSAIYYCAREGDLPMFAYWGQGTLVTVSA VL: QIVLTQSPTIMSASPGEKVTMTCSASSSVSYIYWYQQNPGSSPRLLIYDTSILASGVPFRFSGSGSGTSYSLTISRMEAEDAATYYCQQWTSYPLTFGSGTKLELK
Reply: 2.09

Task item: Same thing, different binder: CHA.7.537 (antibody, V domains shown) VH: QVQLKESGPGLVAPSQSLSITCTVSGFSLIGHGVNWIRQPPGKGLEWLGVIWGDGNTDYNSALKSRLSISKDNSKSQVFLKMNSLQTDDTARYFCAVNSAMDYWGQGTAVTVSS VL: NIVMTQSPKSMSMSVGERVTLNCTASENVASFVSWYQQKPEQSPKLLIYGTSNRYTGVPDRFTGSGSATDFTLTISSVQAEDLGDYHCGQSYNYPFTFGSGTKLEIE
Reply: 1.19

Task item: Same thing, different binder: CHA.7.530 (antibody, V domains shown) VH: QVQLQQSGAELMRPGTSVKVSCKASGYAFTNHLIEWIKQRPGQGLEWIGVINPGSDSTDYNEKFKDKATLTADKSSSTAYMQLSSLTSDDSAVYFCARSLYYNSWFVYWGQGTLVTVSA VL: DIQMTQSPASLSASVGETVTITCRASENIYSYLAWYQQKRGKSPQLLVYNAKTLVEGVPSRFSGSGSGTQFSLKINSLQPEDFGSYYCQHHYGTPYTFGGGTKLEIK
Reply: 1.89

These entries and their values trace back to patent US20240075137A1.
